Measured values drawn from patent US20230348573A1 for this set.

molecular target: spike protein of SARS-CoV-2 (Wuhan strain) on pseudovirus (SARS-CoV-2 (Wuhan strain), UniProt P0DTC2 14-1254); experiment: cell-based or functional assay
observedProperty: IC50 of pseudovirus infection (luciferase) (µg/mL)
The reply should contain only the number, in µg/mL.

Request: Please look up its IC50 of pseudovirus infection (luciferase): Ab864 (antibody, V domains shown) VH: EVQLVESGGGLVQPGRSLRLSCAASGFTFDDYAMHWVRQVPGKGLEWVSGISWNKGNIDYADSVKGRFTISRDNAKNSLYLQMNSLRPEDTGLYYCAKDCHYDSPGYFPNCLHSWGQGTLVTVSS VL: EIVMTQSPSSLSASVGDRVTITCRASQGINTYLAWYQQKPGKAPKLLIYTASTLQSGVPSRFSGSGSGTDFTLTISSLQPEDFATYYCQQVHSYPLTFGGGTKVEIK
Response: 0.0084

Request: Further, for Ab803 (antibody, V domains shown) VH: EVQLVESGGGLVQPGRSLRVSCAASGFTFDDYAMHWVRQTPRKGLEWVAGISRNSAAIAYADSVKGRFTISRDNAKNSVFLQMNGLRADDTALYYCVKSPRYGWGSPDYSFDFWGRGTLVTVSS VL: DIQLTQSPSSLSASVGDRVTITCRASQNIGTYLNWYQQEPGKAPKLLIYAASSLQSGVPSRFSGSGSGTDFTLTISSLQPEDFATYCCQQSFTTPLTFGQGTKVEIK ?
Response: 0.0468

Request: Ab326 (antibody, V domains shown) VH: EVQLVESGGGVVQPGRSLRLSCAASGFTFSHYPMHWVRQAPGRGLEWVAVISYDGSNQHYVDSVKGRFTISRDNSKNTLYLQMNSLRAEDTAVYFCASLITMIRGVPDYWGQGTLVTVSS VL: DIQMTQSPSSLSASVGDRVTITCRASQSISNYLNWYQQKPGKAPNLLIFAASSLQSGVPSRFSGSGSGTEFTLTISSLQPEDFAAYYCLQTYSTPRTFGQGTRLEIK , same question.
Response: 0.031
